All values here come from ChEMBL document CHEMBL4699410.

TEST_DESCRIPTION: Cytotoxicity against human HeLa-P4 cells at 50 uM […] by MTS assay relative to control
Format: cell-based
CONDITION_DETAILS: hela p4, 50 µM
Label Met when Activity is strictly below 4%; otherwise label Not met.

For C#Cc1ccccc1-n1nc(C#N)c(N)c1C(=O)OC , is the recorded Activity below the cut-off of 4%?
Not met

For COC(=O)c1c2nc(-c3cccc(Br)c3)cc(N)c2nn1-c1cccc(OC)c1 , is the recorded Activity below the cut-off of 4%?
Met

For COC(=O)c1c(N)c(C#N)nn1-c1ccccc1F , is the recorded Activity below the cut-off of 4%?
Met

For COC(=O)c1c(N)c(C#N)nn1-c1ccccc1I , is the recorded Activity below the cut-off of 4%?
Not met

For COC(=O)c1c(N)c(C#N)nn1-c1ccc(OCc2ccccc2)cc1 , is the recorded Activity below the cut-off of 4%?
Met

For COC(=O)c1c(N)c(C#N)nn1-c1ccccc1Cl , is the recorded Activity below the cut-off of 4%?
Met

For COC(=O)c1c(N)c(C#N)nn1-c1cccc(F)c1 , is the recorded Activity below the cut-off of 4%?
Met

For COC(=O)c1c(N)c(C#N)nn1-c1ccc(Cl)cc1 , is the recorded Activity below the cut-off of 4%?
Not met

For COC(=O)c1c(N)c(C#N)nn1-c1cccc([N+](=O)[O-])c1 , is the recorded Activity below the cut-off of 4%?
Met

For COC(=O)c1c(N)c(C#N)nn1-c1ccc(Br)cc1 , is the recorded Activity below the cut-off of 4%?
Not met

For C#Cc1cccc(-n2nc(C#N)c(N)c2C(=O)OC)c1 , is the recorded Activity below the cut-off of 4%?
Not met

For COC(=O)c1c(N)c(C#N)nn1-c1ccc([N+](=O)[O-])cc1 , is the recorded Activity below the cut-off of 4%?
Met

For COC(=O)c1c(N)c(C#N)nn1-c1ccccc1 , is the recorded Activity below the cut-off of 4%?
Not met

For COC(=O)c1c(N)c(C#N)nn1-c1cccc(C(=O)OC(C)(C)C)c1 , is the recorded Activity below the cut-off of 4%?
Met

For COC(=O)c1c(N)c(C#N)nn1-c1ccccc1OCc1ccccc1 , is the recorded Activity below the cut-off of 4%?
Not met

For COC(=O)c1c(N)c(C#N)nn1-c1ccccc1OC , is the recorded Activity below the cut-off of 4%?
Not met

For COC(=O)c1c(N)c(C#N)nn1-c1ccccc1[N+](=O)[O-] , is the recorded Activity below the cut-off of 4%?
Met

For COC(=O)c1c(N)c(C#N)nn1-c1cccc(Cl)c1 , is the recorded Activity below the cut-off of 4%?
Not met

For COC(=O)c1c(N)c(C#N)nn1-c1cccc(OC)c1 , is the recorded Activity below the cut-off of 4%?
Not met

For COC(=O)c1c(N)c(C#N)nn1-c1ccccc1Br , is the recorded Activity below the cut-off of 4%?
Not met

For COC(=O)c1c(N)c(C#N)nn1-c1cccc(OCc2ccccc2)c1 , is the recorded Activity below the cut-off of 4%?
Not met

For COC(=O)c1c(N)c(C#N)nn1-c1ccc(OC)cc1 , is the recorded Activity below the cut-off of 4%?
Not met

For COC(=O)c1c(N)c(C#N)nn1-c1ccc(F)cc1 , is the recorded Activity below the cut-off of 4%?
Not met

For COC(=O)c1c(N)c(C#N)nn1-c1ccc(C(F)(F)F)cc1 , is the recorded Activity below the cut-off of 4%?
Not met

For COC(=O)c1c(N)c(C#N)nn1-c1cccc(Br)c1 , is the recorded Activity below the cut-off of 4%?
Not met
